tested on: U2OS; experiment: Multiplex assay against U2OS; assay type: toxicity, cell-based; settings: human, 12 h, 1 µM, compound concentration 1 uM, replicate 2
Attribute: Population Pyknosed Nuclei (%)
Give your result in % as a bare value.

Worked examples follow.
C[C@H](NC(=O)CNC(=O)c1cccc(Cl)c1)c1ccccc1 = 11
COCCn1c(C)c(C)s/c1=N\C(=O)C1C(C)(C)C1(C)C = 5
CN1CCN2c3ccccc3Cc3ccccc3C2C1.Cl (centres undefined) [MIANSERIN HYDROCHLORIDE] = 5
COc1cc(Nc2ncc3c(n2)-c2ccc(Cl)cc2C(c2c(F)cccc2OC)=NC3)ccc1C(=O)O = 8
COCCCN1CCC(NC(=O)c2cc(Cl)c(N)c3c2OCC3)CC1 [PRUCALOPRIDE] = 7

Query :: Consider the molecule `Cc1cc(-c2ccc3c(c2)CC[C@H]3N2CC3(CCN(C(=O)Cc4cn5cc(C)sc5n4)CC3)C2)ncn1` . State its measured Population Pyknosed Nuclei (%).
Result :: 11

Query :: Check the records and state Population Pyknosed Nuclei (%) for O=C(O)CCC/C=C\CC1C(O)CC(O)C1/C=C/C(O)COc1cccc(Cl)c1 (centres undefined)
Result :: 6

Query :: Give reported Population Pyknosed Nuclei (%) value for CCn1c(-c2nc3cc(C(=O)N4CCCC(N)C4)ccc3n2C)cc2ccccc21.Cl (centres undefined)
Result :: 3

Query :: Return Population Pyknosed Nuclei (%) for the following molecule: `Cc1nn(C)c2nc(NNC(=O)Nc3cc(Cl)nc(Cl)c3)cc(C(C)C)c12`
Result :: 8

Query :: In one line, give reported Population Pyknosed Nuclei (%) of the entry `Cc1sc2c(c1C)C(c1ccc(Cl)cc1)=N[C@H](CC(=O)OC(C)(C)C)c1nnc(C)n1-2` .
Result :: 6
